test: NCI Yeast Anticancer Drug Screen. Data for the bub3 strain (AID 167); conditions: S. cerevisiae bub3 mutant strain, at 50.0 µM (retest, dose inferred, filed as 5.0), stronger effect = higher value
Compounds without any hit were thinned out: in the full panel of roughly 79,000, 15% have a hit.
MEASURED_ATTRIBUTE: growth inhibition (%)
// return numeric value only (unit: %, not printed)

In: Query growth inhibition for CCCCCCCCCCCCCCCCOP(=O)(O)OP(=O)(O)OCC1OC(n2ccc(N)nc2=O)C(O)C1O (stereo not given)
Out: 98

In: Query growth inhibition for C/C(=N\O)c1cc(Br)cc([N+](=O)[O-])c1O
Out: 10

In: Query growth inhibition for CC(C)(C)OC(=O)NCCc1cccc2c1oc1c(CCC(=O)O)cccc12
Out: 88

In: Query growth inhibition for O=S(=O)(O)c1ccc(NN(c2c(O)ccc3ccccc23)S(=O)(=O)O)cc1
Out: -10

In: Query growth inhibition for Nc1ccc2c3c(cccc13)C(=O)N(CCCBr)C2=O
Out: 78
